Tested on: U251 CNS
assaySummary: NCI tumour cell line growth inhibition, 48 h
quantityMeasured: TGI

Solved cases below.
In [3]: df
Out[3]:
                                   compound  testedon  quantitymeasured       result
0  O=C1C=C/C(=C/[C@H]2SSC=C[C@]23C=CC(=O)C3)C1  U251 CNS               TGI     > 100 µM
1   O=C(O)Cn1ccc(=O)c2cc([N+](=O)[O-])ccc21  U251 CNS               TGI     > 100 µM
2     Cc1cc2c(cc1Cl)Sc1n[nH]c(=O)n1S2(=O)=O  U251 CNS               TGI     > 100 µM
3                 Oc1ccc(SCc2cc(O)ccc2O)cc1  U251 CNS               TGI      28.4 µM
4  CCCCC[C@@H](C/C=C/CCC(=O)NC/C(=C/Cl)[C@H]1C(=O)C(C)(C)C(=O)[C@@H](C)[C@@]1(C)O)OC  U251 CNS               TGI      37.1 µM
5  COc1cc(N(CCC#N)CCC#N)ccc1/C(N=Nc1ccc(C(=O)O)cc1)=N/NC(=O)c1cc(Br)ccc1O  U251 CNS               TGI  > 150 µg/mL
6  O=C1c2ccccc2C(=O)c2sc(Nc3cc(Cl)ccc3Cl)nc21  U251 CNS               TGI      33.5 µM
7     CCSc1ncc(Br)c(Sc2nc(N)nc3nc[nH]c23)n1  U251 CNS               TGI     > 100 µM
8  CC(=O)N[C@@H](Cc1ccc(O)cn1)C(=O)NC1CCCCC1  U251 CNS               TGI     > 100 µM

Provide only the value of recorded TGI for CCOC(=O)c1csc(NC(=O)C(C)N2CCOCC2)n1 (stereo not given)
> 100 µM
